Consider the following molecules; for each one, report its EC50.
# Tested on: Ba/F3-WT (wild type) cells
# protocol.summary: Ba/F3 Proliferation Assay, Ba/F3-WT (wild type) cells with mIL-3 (Resazurin)
# Assay type: cell-based
# settings: Mus musculus, BaF3, 48 h, Ba/F3-WT cells +mIL-3, 48-hour incubation
Give the quantity in nM, number only.

Ask | Need EC50 of "CC(C)n1ccc(-c2cc(OC[C@@H]3CNCCCO3)c3cccnc3c2)c1" , thanks.
Reply | 3880

Ask | For the molecule "CC(C)(C)n1cc(-c2cc(OC[C@@H]3CNCC4(CCC4)O3)c3cccnc3c2)cn1" , what EC50 is on record?
Reply | 1580

Ask | Entry "CC(C)[C@H]1CNC[C@@H](COc2nc(-c3cnn(C(C)(C)C)c3)cc3ncccc23)O1" has what EC50?
Reply | 1570

Ask | Bench note: what EC50 did "CC(C)n1ccc(-c2cc(OC[C@@H]3CNC[C@@H](C)O3)c3nccnc3c2)c1" show?
Reply | 421

Ask | So what's the measured EC50 for this one? "CC(C)n1cc(-c2cc3ncccc3c(OC[C@@H]3CNCCCO3)n2)cn1"
Reply | 1540

Ask | Consider the molecule "CC(C)n1ccc(-c2cc(OC[C@@H]3CNCC4(CC4)O3)c3nccnc3c2)c1" and give its measured EC50.
Reply | 614

Ask | Quick check: EC50 of "Cc1ccnc2cc(-c3cnn(C(C)(C)C)c3)cc(OC[C@@H]3CNCC(C)(C)O3)c12" ?
Reply | 1220

Ask | Please give the measured EC50 for this molecule: "CC(C)n1ccc(-c2cc3ncccc3c(OC[C@@H]3CNCCCO3)n2)c1"
Reply | 2820

====

# assay.target: Ba/F3-Syk cells (Homo sapiens)
# Construct: fused on or other part: Possible but unprinted fusion partner: TEL (ETV6), the usual partner for Ba/F3 lines transformed by Syk; Nothing on a partner is printed
# protocol.summary: Ba/F3 Proliferation Assay, Ba/F3-Syk cells (Resazurin)
# settings: 48-hour incubation
Labelling: EC50 reported below 30 nM becomes condition met; at or above becomes condition not met.

Ask | Answer whether the compound "C[C@@H](Oc1nc(-c2cnn(C)c2)cc2ncccc12)[C@@H]1CNCCO1" has EC50 strictly less than 30 nM
Reply | condition not met

Ask | Identify whether the compound "CC[C@@H](C)n1ccc(-c2cc(OC[C@@H]3CNCCO3)c3nccnc3c2)c1" records EC50 below 30 nM.
Reply | condition met

Ask | Criterion: EC50 strictly below 30 nM. Is it met by "CC1(C)CNC[C@@H](COc2cc(-c3cnn(C(C)(C)C)c3)cc3ncncc23)O1" ?
Reply | condition not met

Ask | In plain terms, does "c1cnc2cc(-c3cnn([C@H]4CCOC4)c3)nc(OC[C@@H]3CNCCO3)c2c1" come in under 30 nM for EC50?
Reply | condition not met

Ask | Dear reviewer, please state whether "C1=C(c2cc(OC[C@@H]3CNCCO3)c3cccnc3c2)CCC1" has EC50 strictly beneath 30 nM.
Reply | condition not met

Ask | Find out if reported EC50 for "COCCn1ccc(-c2cc3ncccc3c(OC[C@@H]3CNCC4(CC4)O3)n2)c1" is less than 30 nM
Reply | condition met

Ask | State whether 30 nM exceeds EC50 recorded for "c1cnc2cc(-c3cnn(C4COC4)c3)nc(OC[C@@H]3CNCCO3)c2c1" .
Reply | condition not met

Ask | I'd appreciate it if you could check whether "CC(C)(C)n1cc(-c2cc(OC[C@@H]3CNCC4(CC4)O3)c3nccnc3c2)cn1" has EC50 smaller than 30 nM.
Reply | condition met

Ask | Consider the compound CC(C)(C)n1cc(-c2cc3ncccc3c(OC[C@H]3O[C@H]4CCN[C@@H]3C4)n2)cn1 (single isomer, unassigned) [Compound 13.11] . Is its EC50 strictly less than 30 nM?
Reply | condition not met

Ask | API: query returns whether the compound falls strictly under 30 nM in EC50. Query: "CC(C)(C)n1cc(-c2cc3ncccc3c(OC[C@@H]3CNCCO3)n2)cn1"
Reply | condition not met

Ask | Field: below-cutoff. Rule: recorded EC50 strictly less than 30 nM. Subject: "CC(C)n1ccc(-c2cc3ncccc3c(O[C@H](C)[C@@H]3CNCCO3)n2)c1"
Reply | condition met

Ask | Determine whether this compound shows EC50 lower than 30 nM (ties excluded): CC(C)(C)n1cc(-c2cc3ncccc3c(OC[C@H]3O[C@H]4CCN[C@@H]3C4)n2)cn1 (single isomer, unassigned) [Compound 13.12]
Reply | condition not met

Ask | Strictly below 30 nM: is that where EC50 of "Cn1cc(-c2cc3ncccc3c(O[C@H]([C@@H]3CNCCO3)C(F)(F)F)n2)cn1" sits?
Reply | condition not met

Ask | Take the compound "CC(C)n1cc(-c2cc(O[C@H](C)[C@@H]3CNCC(C)(C)O3)c3cccnc3c2)cn1" and say whether its EC50 is less than 30 nM.
Reply | condition not met

Ask | Take the compound "FC(F)Cn1ccc(-c2cc(OC[C@@H]3CNCCCO3)c3nccnc3c2)c1" and say whether its EC50 is less than 30 nM.
Reply | condition met

All values here come from patent US20250263408A1.
